test system: phosphorylation of CDK1 at Thr14 in HCC1806 cells; assay: Cell lysate AlphaLISA assay measuring inhibition of phosphorylation of CDK1 Thr14; assay type: cell-based; settings: 4 hours, read-out: Cellular IC50
Experimental readout: IC50

> print(dat)
                                    molecule     result.value
 1  Cc1cnc2c(-c3cccc(O)c3C)c(N)c(C(N)=O)cc2n1 (atropisomer, axis not shown) [Compound 201]        ≥ 5000 nM
 2  Cc1cnc2cc(C(N)=O)c(N)c(-c3cccc(O)c3C)c2n1 (atropisomer, axis not shown) [Compound 168]     50 to 500 nM
 3  Cc1c(O)cccc1-c1c(N)c(C(N)=O)nc2cccc(C#N)c12 (atropisomer, axis not shown) [Compound 243]     50 to 500 nM
 4  COc1cncc(-c2c(N)c(C(N)=O)nc3cccnc23)c1C (atropisomer, axis not shown) [Compound 185]        ≥ 5000 nM
 5  Cc1c(O)cccc1-c1c(N)c(C(N)=O)cc2cccnc12 (single isomer, unassigned) [Compound 63]        ≥ 5000 nM
 6  NC(=O)c1cc2nccnc2c(-c2c(Cl)ccc3[nH]ncc23)c1N (atropisomer, axis not shown) [Compound 247]        ≥ 5000 nM
 7  Cc1c(F)cncc1C1=c2ncccc2=NC(C(N)=O)C1N (centres unmarked) [Compound 226]   500 to 1000 nM
 8  Cc1c(O)cccc1-c1c(N)c(C(N)=O)nc2cccc(F)c12 (single isomer, unassigned) [Compound 58]        ≥ 5000 nM
 9  COc1ccc2nc(C(N)=O)c(N)c(-c3cccc(O)c3C)c2n1 [Compound 157]     50 to 500 nM
10  COc1ccnc2c(-c3cccc(O)c3C)c(N)c(C(N)=O)cc12 (atropisomer, axis not shown) [Compound 325]  1000 to 5000 nM
11  Cc1c(-c2c3c(cc4nccnc24)C(=O)NC(C)(C)N3)ccc(F)c1O (atropisomer, axis not shown) [Compound 313]        ≥ 5000 nM
12  Cc1c(O)cccc1-c1c(N)c(C(N)=O)cc2nc(C)c(=O)n(C)c12 (atropisomer, axis not shown) [Compound 171]  1000 to 5000 nM
13  Cc1ccc(O)c(C)c1-c1c(N)c(C(N)=O)nc2ccc(F)cc12 (atropisomer, axis not shown; (M)) [Compound 23]  1000 to 5000 nM
14  Cc1c(O)cccc1-c1c(N)c(C(N)=O)nc2cc(C(F)(F)F)ccc12 (atropisomer, axis not shown) [Compound 147]  1000 to 5000 nM
